tested on: S. cerevisiae BY4741 (wild-type), vegetative growth in YPD; test: growth sensitivity score (doubling time z-score vs DMSO controls); higher = slower growth, strongly negative scores also mark growth inhibition (complete suppression), active = hit call of the paper; in the data active = 2 or more and inactive = the rest
Return exactly one item of active, inactive

Reference set (5 entries):
- compound: "Cc1occc(=O)c1O [Maltol] (stock concentration (mM, diluted 1:100): 10)"
  study.system: "S. cerevisiae BY4741 (wild-type), vegetative growth in YPD"
  label.class: "inactive"
- compound: "CC(C)(C)C(O)/C=C/c1ccc2c(c1)OCO2 (stereo unspecified) [Stiripentol] (stock concentration (mM, diluted 1:100): 10)"
  study.system: "S. cerevisiae BY4741 (wild-type), vegetative growth in YPD"
  label.class: "active"
- compound: "C[C@H]1COc2c(N3CCN(C)CC3)c(F)cc3c(=O)c(C(=O)O)cn1c23 [Levofloxacin] (stock concentration (mM, diluted 1:100): 10)"
  study.system: "S. cerevisiae BY4741 (wild-type), vegetative growth in YPD"
  label.class: "inactive"
- compound: "O=C1C(c2c(O)[nH]c3ccccc23)=Nc2ccccc21 [Indarubicin] (stock concentration (mM, diluted 1:100): 10)"
  study.system: "S. cerevisiae BY4741 (wild-type), vegetative growth in YPD"
  label.class: "inactive"
- compound: "COc1ccc2cc([C@H](C)C(=O)O)ccc2c1 [Naproxen sodium] (stock concentration (mM, diluted 1:100): 10)"
  study.system: "S. cerevisiae BY4741 (wild-type), vegetative growth in YPD"
  label.class: "inactive"

// switching to the query compound
Any idea what this test logged for CCOC(=O)c1ncn2c1CN(C)C(=O)c1cc(F)ccc1-2 [Flumazenil] (stock concentration (mM, diluted 1:100): 10) ?
inactive

---

tested on: S. cerevisiae AD1-9 (efflux-pump deficient), vegetative growth in YPD; test: growth sensitivity score (doubling time z-score vs DMSO controls); higher = slower growth, strongly negative scores also mark growth inhibition (complete suppression), active = hit call of the paper
observable: growth sensitivity score
// no unit string in output, number only

Example entries and their recorded answers appear below.
- compound: "COc1cc2c(cc1OC)C(=O)C(CC1CCN(Cc3ccccc3)CC1)C2 (stereo not drawn) [Donepezil] (stock concentration (mM, diluted 1:100): 9.1)"
  growth sensitivity score: 3.1
- compound: "COc1ccc2cc([C@H](C)C(=O)O)ccc2c1 [Naproxen sodium] (stock concentration (mM, diluted 1:100): 10)"
  growth sensitivity score: 1.41

Consider now this further compound.
Answer with the recorded growth sensitivity score of NC(=O)OCC(COC(N)=O)c1ccccc1 [Felbamate] (stock concentration (mM, diluted 1:100): 14) only.
-0.62

---

tested on: S. cerevisiae AD1-9 (efflux-pump deficient), vegetative growth in YPD; assay: growth sensitivity score (doubling time z-score vs DMSO controls); higher = slower growth, strongly negative scores also mark growth inhibition (complete suppression), active = hit call of the paper
Counter-ions that a name gives are not always drawn.
Rule: class 1 for growth sensitivity score not less than -0.1, class 0 for anything less.

Look over these answered cases.
- molecule: "Cc1nc(=O)c2cc(CN(C)c3ccc(C(=O)N[C@@H](CCC(=O)O)C(=O)O)s3)ccc2[nH]1 [Raltitrexed] (stock concentration (mM, diluted 1:100): 10)"
  label.class: "class 0"
- molecule: "CN(Cc1cnc2nc(N)nc(N)c2n1)c1ccc(C(=O)N[C@@H](CCC(=O)O)C(=O)O)cc1 [Methotrexate] (stock concentration (mM, diluted 1:100): 14.6)"
  label.class: "class 0"
- molecule: "COC(=O)C1=C(C)NC(C)=C(C(=O)OCC(C)C)C1c1ccccc1[N+](=O)[O-] (stereo unspecified) [Nisoldipine] (stock concentration (mM, diluted 1:100): 10)"
  label.class: "class 1"
- molecule: "Nc1[nH]c(=O)ncc1F [5-Fluorocytosine] (stock concentration (mM, diluted 1:100): 10.5)"
  label.class: "class 1"
- molecule: "CC(C)NCC(O)c1ccc(NS(C)(=O)=O)cc1 (stereo unspecified) [Sotalol hydrochloride] (stock concentration (mM, diluted 1:100): 8.8)"
  label.class: "class 0"

Reported growth sensitivity score at or above -0.1? CN(C)CC[C@@H](c1ccc(Cl)cc1)c1ccccn1 [Dexchlorpheniramine maleate] (stock concentration (mM, diluted 1:100): 7)
class 0
